runDescription: Inhibition of HIV NL4.3 integrase A124/A125 double mutant infected in PBMC assessed as reduction in viral replication by p24 ELISA
testSettings: Human immunodeficiency virus 1, NL4.3
testReadout: EC50 (nM)

moleculesmiles=Cc1nc(C(=O)N[C@H]2CC[C@H](C)CC2)c(C)c(-c2ccc3c(c2C)N(C)CCO3)c1[C@H](OC(C)(C)C)C(=O)O recordedmeasurement=0.9

----------
subjectOfTest: Cytochrome P450 2C19 (Homo sapiens)
Sequence (P33261 whole entry): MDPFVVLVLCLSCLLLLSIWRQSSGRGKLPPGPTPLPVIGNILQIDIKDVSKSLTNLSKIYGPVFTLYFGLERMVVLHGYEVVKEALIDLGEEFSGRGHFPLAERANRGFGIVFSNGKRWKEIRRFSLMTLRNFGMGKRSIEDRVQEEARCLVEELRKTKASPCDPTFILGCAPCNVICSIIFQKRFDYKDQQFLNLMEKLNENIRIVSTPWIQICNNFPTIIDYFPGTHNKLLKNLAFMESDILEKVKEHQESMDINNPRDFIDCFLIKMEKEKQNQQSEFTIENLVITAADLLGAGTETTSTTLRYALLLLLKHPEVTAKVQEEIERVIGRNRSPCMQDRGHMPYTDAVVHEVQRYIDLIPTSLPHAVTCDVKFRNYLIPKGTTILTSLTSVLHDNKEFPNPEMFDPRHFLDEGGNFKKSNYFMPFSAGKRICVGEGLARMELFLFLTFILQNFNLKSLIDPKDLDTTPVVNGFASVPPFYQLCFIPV
testReadout: IC50

moleculesmiles=Cc1nc(C(=O)N[C@H]2CC[C@H](C)CC2)c(C)c(-c2ccc3c(c2C)N(C)CCO3)c1[C@H](OC(C)(C)C)C(=O)O recordedmeasurement="> 30 µM"

From: ChEMBL document CHEMBL4428082
